Molecular target: protein tyrosine kinase 7 (PTK-7) on HCT-116 cells
Sequence: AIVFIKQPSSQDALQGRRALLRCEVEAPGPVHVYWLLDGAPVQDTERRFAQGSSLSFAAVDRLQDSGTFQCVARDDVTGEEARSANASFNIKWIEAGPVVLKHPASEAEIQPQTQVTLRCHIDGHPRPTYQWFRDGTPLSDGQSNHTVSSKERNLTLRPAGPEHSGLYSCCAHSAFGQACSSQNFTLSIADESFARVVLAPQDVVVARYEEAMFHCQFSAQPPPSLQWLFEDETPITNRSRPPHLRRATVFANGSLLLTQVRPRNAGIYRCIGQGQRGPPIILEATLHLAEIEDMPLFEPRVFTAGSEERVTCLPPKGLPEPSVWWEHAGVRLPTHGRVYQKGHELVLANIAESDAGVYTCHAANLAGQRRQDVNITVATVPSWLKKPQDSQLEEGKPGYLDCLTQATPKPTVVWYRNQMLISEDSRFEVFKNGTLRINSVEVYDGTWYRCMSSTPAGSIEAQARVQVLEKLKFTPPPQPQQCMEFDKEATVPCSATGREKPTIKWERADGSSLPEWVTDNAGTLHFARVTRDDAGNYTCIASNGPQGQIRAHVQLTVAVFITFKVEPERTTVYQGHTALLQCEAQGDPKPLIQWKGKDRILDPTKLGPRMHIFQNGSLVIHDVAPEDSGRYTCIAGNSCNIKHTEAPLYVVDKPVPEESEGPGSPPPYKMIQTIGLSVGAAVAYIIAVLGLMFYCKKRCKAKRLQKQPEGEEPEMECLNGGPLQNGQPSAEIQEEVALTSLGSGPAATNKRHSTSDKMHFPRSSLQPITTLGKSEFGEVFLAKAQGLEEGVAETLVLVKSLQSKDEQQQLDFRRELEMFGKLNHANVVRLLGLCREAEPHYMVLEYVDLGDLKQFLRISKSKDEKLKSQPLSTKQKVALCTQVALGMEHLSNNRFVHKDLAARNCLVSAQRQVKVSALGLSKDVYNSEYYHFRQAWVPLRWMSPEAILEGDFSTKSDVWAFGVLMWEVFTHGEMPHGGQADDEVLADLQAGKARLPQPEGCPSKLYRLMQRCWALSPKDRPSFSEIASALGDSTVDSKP
Assay: flow cytometry, cell binding
Conditions: 5 mM Mg2+; 5' amino coupled to p-SCN-Bn-NOTA; Whole cells washed in D-PBS with 4.5 g/L glucose and 5 mM MgCl2; 300,000 cells in 200 ul binding buffer (composition and pH not stated), on ice 30 min …
attributeMeasured: pKd
Scale: pKd equals -log10([C]), with [C] in mol/L.

I'm curious: which pKd was measured for ATCTAACTGCTGCGCCGCCGGGAAAATACTGTACGGTTAGA [NOTA-SGC8] tested on protein tyrosine kinase 7 (PTK-7) on HCT-116 cells?
8.46

###

Biological target: protein tyrosine kinase 7 (PTK-7) on HCT-116 cells (UniProt Q13308)
Sequence: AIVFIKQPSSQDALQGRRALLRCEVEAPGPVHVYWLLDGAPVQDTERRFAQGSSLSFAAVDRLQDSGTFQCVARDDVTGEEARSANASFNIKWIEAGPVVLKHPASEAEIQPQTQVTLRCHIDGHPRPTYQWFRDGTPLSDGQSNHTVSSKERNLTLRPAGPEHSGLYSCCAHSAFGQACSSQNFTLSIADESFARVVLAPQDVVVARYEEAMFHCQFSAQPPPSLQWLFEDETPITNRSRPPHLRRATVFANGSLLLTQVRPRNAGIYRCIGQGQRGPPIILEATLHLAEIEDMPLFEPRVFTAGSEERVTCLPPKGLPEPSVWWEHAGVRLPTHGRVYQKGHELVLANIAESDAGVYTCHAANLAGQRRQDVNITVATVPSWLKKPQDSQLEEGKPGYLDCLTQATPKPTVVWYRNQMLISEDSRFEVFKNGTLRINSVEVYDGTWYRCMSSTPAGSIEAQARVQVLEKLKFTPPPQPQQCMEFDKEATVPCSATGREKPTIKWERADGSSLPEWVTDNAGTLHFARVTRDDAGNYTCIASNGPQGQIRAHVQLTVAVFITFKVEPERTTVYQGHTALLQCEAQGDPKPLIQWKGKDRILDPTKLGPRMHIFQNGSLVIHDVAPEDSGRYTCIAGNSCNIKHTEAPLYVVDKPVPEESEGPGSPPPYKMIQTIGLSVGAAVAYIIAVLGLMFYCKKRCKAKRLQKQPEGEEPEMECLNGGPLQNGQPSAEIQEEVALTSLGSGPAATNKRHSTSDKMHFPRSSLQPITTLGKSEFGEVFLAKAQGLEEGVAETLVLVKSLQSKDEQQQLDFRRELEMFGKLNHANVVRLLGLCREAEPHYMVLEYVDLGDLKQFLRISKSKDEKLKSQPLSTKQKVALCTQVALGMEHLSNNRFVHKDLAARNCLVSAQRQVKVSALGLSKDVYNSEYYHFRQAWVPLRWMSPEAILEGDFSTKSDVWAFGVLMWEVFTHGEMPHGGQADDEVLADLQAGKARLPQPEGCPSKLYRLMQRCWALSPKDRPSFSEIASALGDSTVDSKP
Experiment: flow cytometry, cell binding
Conditions: 5 mM Mg2+; Whole cells washed in D-PBS with 4.5 g/L glucose and 5 mM MgCl2; 300,000 cells in 200 ul binding buffer (composition and pH not stated), on ice 30 min …
attributeMeasured: Kd (nM)
Answer with a number only, understood to be in nM.

# input sequence: ATCTAACTGCTGCGCCGCCGGGAAAATACTGTACGGTTAGA [SGC8] ; wanted: its Kd
1.88
